Where do these numbers come from? They come from patent US20200079833A1.

target desc: T1, GLP-1R (INS1e assay) (UniProt P32301 22-463, limits assumed)
T1 sequence (looked up): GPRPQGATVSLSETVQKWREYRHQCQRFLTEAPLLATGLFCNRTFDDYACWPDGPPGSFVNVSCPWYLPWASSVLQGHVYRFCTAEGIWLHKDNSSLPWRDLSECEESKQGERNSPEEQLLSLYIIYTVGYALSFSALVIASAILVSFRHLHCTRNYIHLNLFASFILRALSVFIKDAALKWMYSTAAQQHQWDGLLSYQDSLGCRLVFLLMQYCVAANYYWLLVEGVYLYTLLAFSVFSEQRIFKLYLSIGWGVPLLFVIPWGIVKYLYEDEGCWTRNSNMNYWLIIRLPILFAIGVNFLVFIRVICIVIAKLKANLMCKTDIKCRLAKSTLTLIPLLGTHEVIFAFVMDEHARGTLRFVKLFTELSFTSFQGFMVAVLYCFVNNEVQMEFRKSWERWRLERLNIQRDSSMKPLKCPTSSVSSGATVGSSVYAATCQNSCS
assay summary: cell-based or functional assay
Non-standard residues stand in square brackets, D forms with d. Groups on a side chain read outwards from the residue. Primed or numbered codes have the meaning given here. No end group written: not given here. *: point of attachment. Stearoyl = CCCCCCCCCCCCCCCCCC(=O)*; αMeF = C[C@](N)(Cc1ccccc1)C(=O)O; αMeK = C[C@](N)(CCCCN)C(=O)O; Lauroyl = CCCCCCCCCCCC(=O)*; αMeS = C[C@](N)(CO)C(=O)O; PEG2′ = not defined here; Aib = CC(C)(N)C(=O)O
endpoint label: INS1e assay EC50 GLP-1 R n2 (nM)
Your answer should be a plain number; it is taken to be in nM.

H[Aib]EGS[αMeF]TSDV[αMeS]S[αMeF]LEGEAA[αMeK]E[αMeF]IA[αMeF]VVK([PEG2′-PEG2′-Stearoyl])GG-NH2 [SEQ ID NO 189]	0.173

With those in mind, consider the next binder.
Fill blank: measured INS1e assay EC50 GLP-1 R n2 of the binder H[Aib]EGS[αMeF]TSDV[αMeS]S[αMeF]LEGEAAK([PEG2′-PEG2′-PEG2′-Lauroyl])E[αMeF]IA[αMeF]VV[αMeK]GG-NH2 [SEQ ID NO 136] is ____.
0.0215
